- Tested on: HCT-116 colon
- ASSAY NOTES: NCI tumour cell line growth inhibition, 48 h; in the data active = GI50 below about 0.43 µM; inactive = the rest
Lab note: assign the record to one of yes = active, no = inactive

Exercise: So what was the verdict on CCN1C(=O)N(CC)C2C1N=C(SC)N2/N=C/C=C/c1ccccc1OC (centres undefined) in this test?
Solution: yes

Exercise: # fetch the recorded call for COc1cc(-c2ccc[nH]2)[nH]c1/C=C1\N=C(C)C(CC(=O)OCC(C)(C)C)=C1C here
Solution: yes

Exercise: // param item: CC1=C[C@@H]2c3c(c(O)c(O)c4oc5cc(O)cc(O)c5c(=O)c34)[C@@H](c3cc(O)c(O)c4oc5cc(O)cc(O)c5c(=O)c34)[C@@H]2C(C)(C)C1 ; yields the recorded call
Solution: no

Exercise: In this assay, the call recorded for COc1cnccc1Nc1nc(-c2nn(Cc3c(F)cc(OCCO)cc3F)c3ccccc23)ncc1OC was what?
Solution: no

###

- Test system: OVCAR-3 ovarian
- ASSAY NOTES: NCI tumour cell line growth inhibition, 48 h
MEASURE: TGI (µM)
Just the number in µM, nothing appended.

Exercise: Please supply the value of reported TGI for the item Cc1ccc(S(=O)(=O)C2CC2(Cl)Cl)cc1 (stereo not given)
Solution: 52.6

Exercise: Indicate the recorded TGI value for this compound: Fc1ccc(C(OCCN2CCC3CCC(C2)N3C/C=C/c2cccs2)c2ccc(F)cc2)cc1 (stereo not given)
Solution: 25.3

Exercise: Name the recorded TGI of the item Cc1cc(N2CCOCC2)nc(NCc2cc(Nc3ccnc4cc(Cl)ccc34)ccc2F)n1 in your answer.
Solution: 3.16

Exercise: State, in one line, measured TGI of FC(F)(F)c1cccc(-c2[nH]ncc2-c2nnnn2-c2ccccc2)c1
Solution: 10.9

###

Exercise: state measured TGI for each of the compounds provided.
- Test system: NCI-H226 lung
- ASSAY NOTES: NCI tumour cell line growth inhibition, 48 h
Could you give me the number in µM? Just the number is fine.

Exercise: Please report the measured TGI for C[C@]12CCC(=O)C[C@@H]1CC[C@@H]1[C@@H]2CC[C@]2(C)[C@@H](OC(=O)N(CCCl)N=O)CC[C@@H]12 tested on NCI-H226 lung.
Solution: 30.4

Exercise: Provide measured TGI on NCI-H226 lung for C=C(C)C(=O)Nc1ccc(-c2c(-c3ccc(Oc4nccc(C)n4)c(F)c3)c3c(N)ncnc3n2C)cc1 please.
Solution: 7.46

Exercise: Enter measured TGI, system NCI-H226 lung, for the compound shown: COc1ccc2c(c1)-c1c(c3cc(OC)ccc3n(CCN(C)C)c1=O)C2=O
Solution: 10.4

###

- Test system: UACC-62 melanoma
- ASSAY NOTES: NCI tumour cell line growth inhibition, 48 h
Assign TGI to each entry below.
Reply numerically in µM, unit not repeated.

Exercise: Supply reported TGI belonging to this compound: COC(=O)c1cc2cc(/C=C3/SC(=S)N(N(C(C)=O)C(C)=O)C3=O)oc2n1Cc1ccccc1
Solution: 33

Exercise: Respond only with TGI recorded for O=C(Oc1c(Cl)cc(Cl)cc1Cl)c1ccccc1Nc1ccnc(C(F)(F)F)c1
Solution: 6.06

###

- Tested on: NCI-H226 lung
- ASSAY NOTES: NCI tumour cell line growth inhibition, 48 h; in the data active means GI50 below about 0.43 µM; inactive means the rest
Answer with one of the outcomes active, inactive

Exercise: What was the test verdict on CC1OC(O[C@@H]2C=C3CC[C@@H]4[C@H](CC[C@]5(C)[C@@H](c6ccc(=O)oc6)CC[C@]45O)[C@@]3(C)CC2)C(O)C(OC2OC(CO)C(O)C(O)C2O)C1O (some centres undefined) ?
Solution: active

Exercise: Fill in: this test's call for COC(=O)CC1=C(C)/C(=C/c2[nH]c(-c3ccc[nH]3)cc2OC)N=C1C is ___
Solution: active

Exercise: What classification did N#Cc1c(N)nc(N2CCOCC2)c(C#N)c1-c1c(Cl)cccc1Cl end up with in this test?
Solution: inactive

Exercise: Per the records of this test, what outcome belongs to COc1cc(-c2ccc[nH]2)[nH]c1/C=C1\N=C(C)C(CC(=O)OCC(C)(C)C)=C1C ?
Solution: active

Exercise: Status in this test for O=C1C(Cl)=C(NCCCN(CCCNC2=C(Cl)C(=O)c3ccccc3C2=O)C2=C(Cl)C(=O)c3ccccc3C2=O)C(=O)c2ccccc21 ?
Solution: inactive

Exercise: Lab log entry: CSc1nc2c(c(=O)n1C)C(c1ccccc1)C1=C(N2)/C(=C/c2ccccc2)CCC1 (centres undefined) — outcome as called in the assay?
Solution: inactive

Exercise: Tell me the assay call for COc1ccc2c(c1)/C(=N/OC(C)=O)c1c-2c(OC)nc2ccccc12 please.
Solution: inactive

Exercise: What did this assay record as the result for CCc1c(C)c2cc(-n3c(-c4ccc(OC)cc4)csc3=N)c(O)c(C)c2oc1=O ?
Solution: inactive

Exercise: What classification did CCN1C(=O)N(CC)C2C1N=C(SC)N2/N=C/C=C/c1ccccc1OC (centres undefined) end up with in this test?
Solution: inactive

###

- System: HS 578T breast
- ASSAY NOTES: NCI tumour cell line growth inhibition, 48 h
Exercise: for every item that follows, state its recorded TGI.

Exercise: Given Fc1ccc(Nc2nc(Nc3ccc(-c4nc5ccccc5[nH]4)cc3)c3cn[nH]c3n2)cc1 , respond with its TGI.
Solution: 5.35 µM

Exercise: Quote TGI reported for CCC(c1ccccc1)c1cc(C(C)(C)C)cc(C(C)(C)C)c1O (configuration not stated) please.
Solution: 32.3 µM

Exercise: Give the measured TGI for COc1ccc(C(O)c2ccccn2)cc1 (configuration not stated)
Solution: > 100 µM

Exercise: Please supply the value of reported TGI for the item CCc1c(C)c2cc(-n3c(-c4ccc(OC)cc4)csc3=N)c(O)c(C)c2oc1=O
Solution: > 100 µM

Exercise: Complete the entry with TGI for COc1cccc(CCNc2c(C#N)c3n(c4ccccc4[n+]3C)c3ncccc23)c1
Solution: 15 µM

Exercise: Quick one: give measured TGI for CCC(Nc1ncnc2nc[nH]c12)C(=O)O (configuration not stated)
Solution: > 100 µM

Exercise: # return recorded TGI for input O=c1[nH]c(=O)n(C2CC(O)C(CO)O2)cc1Br (configuration not stated)
Solution: > 100 µM

Exercise: Determine its reported TGI: C=CCOC(=O)Cn1ccc(=O)[nH]c1=O
Solution: > 100 µM

Exercise: # return recorded TGI for input COC(=O)c1c2c(cc3c1CC1(Cc4ccccc4C1)C3)CCC2
Solution: 79.7 µM

Exercise: Tell me TGI reported for C=CCSC(C)=O
Solution: > 100 µM

Exercise: Give the value of TGI reported for the following: CN(C)CC1CCC/C(=C\c2ccc(OC(=O)/C=C/c3ccc(Cl)cc3)cc2)C1=O (configuration not stated)
Solution: 24.6 µM

Exercise: State its TGI: COc1ccc2c(c1)-c1c(c3cc(OC)ccc3n(CCN(C)C)c1=O)C2=O
Solution: 7.81 µM

Exercise: Note down TGI recorded for Cc1ccc(-c2nc3sc(C)cn3c2/C=C2\C(=O)Nc3ccc(Cl)cc32)cc1
Solution: 73.7 µM

Exercise: State its TGI for this compound: O=C(NC1C/C(=N/O)c2c(Br)sc(Br)c21)C(F)(F)F (configuration not stated)
Solution: 36.3 µM

Exercise: Give the reported TGI for this compound. CC/C=C\C[C@H]1C/C=C2/C(=O)C(Cl)=C[C@@H]2C/C=C\CCCC(=O)O1
Solution: 25 µM

Exercise: Read off the recorded TGI for Fc1ccc(C(OCCN2CCC3CCC(C2)N3C/C=C/c2cccs2)c2ccc(F)cc2)cc1 (configuration not stated)
Solution: 28.4 µM

Exercise: Give the value of TGI reported for the following: COc1ccc([I+]c2ccc(OC)cc2)cc1
Solution: > 100 µM

Exercise: Tell us which TGI value is on record for COc1ccc2c(c1)C(=O)c1c-2n(CCCN(C)C)c(=O)c2cc([N+](=O)[O-])ccc12
Solution: 21.3 µM

Exercise: Indicate its recorded TGI; the compound in question is C[C@]12CCC(=O)C[C@@H]1CC[C@@H]1[C@@H]2CC[C@]2(C)[C@@H](OC(=O)N(CCCl)N=O)CC[C@@H]12
Solution: 16.9 µM

Exercise: Name the recorded TGI of the item Cc1cc(C)n(-c2nc(C)c(CCO)c(=O)[nH]2)n1 in your answer.
Solution: > 100 µM

Exercise: Please look at this compound and report its TGI: CCOC(=O)/C=C1/SC(=Nc2ccc(C#N)cc2)N(Cc2ccco2)C1=O
Solution: > 100 µM

Exercise: Look up and state reported TGI for CCCCCCCCCCCCOC1C(COCCN2CCCCC2)OC2OC(C)(C)OC21 (configuration not stated)
Solution: 4.17 µM

###

Give GI50 for every item shown.
- System: SK-MEL-28 melanoma
- ASSAY NOTES: NCI tumour cell line growth inhibition, 48 h

Exercise: # return GI50 for C[C@]12CCC(=O)C[C@@H]1CC[C@@H]1[C@@H]2CC[C@]2(C)[C@@H](OC(=O)N(CCCl)N=O)CC[C@@H]12 , test system: SK-MEL-28 melanoma
Solution: 6.43 µM

Exercise: Determine reported GI50 for COc1ccc2c(c1)-c1c(c3cc(OC)ccc3n(CCN(C)C)c1=O)C2=O ; test system: SK-MEL-28 melanoma.
Solution: 2.59 µM

Exercise: Output reported GI50 of the compound COC(=O)CC1=C(C)/C(=C/c2[nH]c(-c3ccc[nH]3)cc2OC)N=C1C on SK-MEL-28 melanoma.
Solution: 0.456 µM

Exercise: Report its GI50 with SK-MEL-28 melanoma as the test system: O=C1NC(=NCCc2ccc(Br)cc2)S/C1=C\c1ccc2ncccc2c1
Solution: > 25 µM

Exercise: Report the value of GI50 obtained on SK-MEL-28 melanoma for COc1ccc2c3/c(=C\c4ccc(N(C)C)cc4)c4ccccc4n3[n+](C)c2c1 .
Solution: 0.173 µM

Exercise: Tell me GI50 of CSc1nc2c(c(=O)n1C)C(c1ccccc1)C1=C(N2)/C(=C/c2ccccc2)CCC1 (stereo not given) when tested on SK-MEL-28 melanoma.
Solution: > 100 µM

Exercise: Check SK-MEL-28 melanoma data and give GI50 for N#CC1=C(N)OC2=C(CCOc3c2ccc2ccccc32)C1c1ccc(Br)cc1 (stereo not given) .
Solution: 61.5 µM

Exercise: Print SK-MEL-28 melanoma GI50 for Oc1[nH]c2ccccc2c1C=Nc1ccc(-n2cncn2)cc1 .
Solution: > 25 µM

Exercise: // fetch GI50 for CC1=C(C(=O)Nc2ccc(Cl)c(Cl)c2)C(c2cccc(Cl)c2)NC(=S)N1 (stereo not given) ; system: SK-MEL-28 melanoma
Solution: 15.6 µM

Exercise: Give GI50 for N#Cc1c(N)nc(N2CCOCC2)c(C#N)c1-c1c(Cl)cccc1Cl tested on SK-MEL-28 melanoma.
Solution: 7.38 µM

FYI, the data here is from PubChem BioAssay (NCI).
